Reported pKd values for a set of binders
- TARGET UNDER TEST: T1, SIRP-α cynomolgus (cynomolgus, UniProt A0A2K5VYQ9 31-148)
- T1 construct: Soluble analyte in SPR; also called cynomologous monkey SIRP-α
- T1 sequence: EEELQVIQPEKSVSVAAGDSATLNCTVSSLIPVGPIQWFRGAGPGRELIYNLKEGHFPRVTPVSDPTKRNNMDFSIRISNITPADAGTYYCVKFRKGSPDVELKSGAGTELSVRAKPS
- EXPERIMENT SUMMARY: SPR, antibody on GLC chip, SIRP as analyte
Please keep in mind that pKd is minus log10 of the molar concentration; only the number is needed.

1) Anti-SIRP-α antibody 119, light chain Mut, heavy chain wt (antibody, V domains shown, Whole antibody; Light chain mut = F21L, R39K, E60A, T76S) VH: EVQLLESGGGVVQPGGSLRLSCAASGFSFSNFAMTWVRQAPGEGLEWVSTIGSGDTYYADSVKGRFTISRDNSKNTLYLQMNSLRAEDTAVYYCAKDSTVSWSGDFFDYWGLGTLVTVSS VL: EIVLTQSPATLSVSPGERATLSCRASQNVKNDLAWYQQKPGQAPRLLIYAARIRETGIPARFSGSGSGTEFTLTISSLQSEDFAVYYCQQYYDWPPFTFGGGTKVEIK ... 9.85

API: the following record is the query input.
I have this binder here, Anti-SIRP-α antibody 135, light chain Mut, heavy chain Mut (antibody, V domains shown, Whole antibody) VH: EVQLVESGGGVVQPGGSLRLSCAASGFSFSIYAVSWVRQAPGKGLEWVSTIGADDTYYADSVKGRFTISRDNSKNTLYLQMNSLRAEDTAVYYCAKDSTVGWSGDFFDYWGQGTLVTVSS VL: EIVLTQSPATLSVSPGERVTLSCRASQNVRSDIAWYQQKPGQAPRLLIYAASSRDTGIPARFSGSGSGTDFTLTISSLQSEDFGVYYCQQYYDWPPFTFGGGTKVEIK , and I need its recorded pKd.
9.89
